- Tested on: Escherichia coli TOP10
- TEST_DESCRIPTION: shrunken log2 fold change of peptide-encoding DNA abundance (4.5 h post-induction vs induction); higher = less antimicrobial activity (less host growth inhibition)
- CONDITION_INFO: time post-induction: 4.5 h; library: site-saturation at positions 5, 18, 19, 20
VALUE_TYPE: shrunken log2 fold change
The reply should be a number, written without any unit.

Reference set, count: 10
stdin: Give reported shrunken log2 fold change value for "RRIRNRPPRLPRPRPRPPPRPRP"
stdout: 1.47

stdin: Give reported shrunken log2 fold change value for "RRIRMRPPRLPRPRPRPMQEPRP"
stdout: 0.0303

stdin: Give reported shrunken log2 fold change value for "RRIRTRPPRLPRPRPRPEITPRP"
stdout: -0.0572

stdin: Give reported shrunken log2 fold change value for "RRIRMRPPRLPRPRPRPDHTPRP"
stdout: 0.329

stdin: Give reported shrunken log2 fold change value for "RRIRWRPPRLPRPRPRPVAWPRP"
stdout: 0.489

stdin: Give reported shrunken log2 fold change value for "RRIRERPPRLPRPRPRPTNCPRP"
stdout: -0.165

stdin: Give reported shrunken log2 fold change value for "RRIRTRPPRLPRPRPRPPIIPRP"
stdout: 0.0882

stdin: Give reported shrunken log2 fold change value for "RRIRIRPPRLPRPRPRPQRMPRP"
stdout: -0.387

stdin: Give reported shrunken log2 fold change value for "RRIRNRPPRLPRPRPRPPEHPRP"
stdout: 0.266

stdin: Give reported shrunken log2 fold change value for "RRIRPRPPRLPRPRPRPLNRPRP"
stdout: -0.0518

---
stdin: Give reported shrunken log2 fold change value for "RRIRPRPPRLPRPRPRPQKRPRP"
stdout: 0.151

stdin: Give reported shrunken log2 fold change value for "RRIRSRPPRLPRPRPRPWQRPRP"
stdout: 0.074

stdin: Give reported shrunken log2 fold change value for "RRIRERPPRLPRPRPRPLCQPRP"
stdout: 0.00385

stdin: Give reported shrunken log2 fold change value for "RRIRGRPPRLPRPRPRPNLNPRP"
stdout: 0.0742

stdin: Give reported shrunken log2 fold change value for "RRIRERPPRLPRPRPRPPKKPRP"
stdout: 0.0812

stdin: Give reported shrunken log2 fold change value for "RRIRWRPPRLPRPRPRPRYEPRP"
stdout: 0.0756

stdin: Give reported shrunken log2 fold change value for "RRIRWRPPRLPRPRPRPTAGPRP"
stdout: 0.965

stdin: Give reported shrunken log2 fold change value for "RRIRPRPPRLPRPRPRPWQVPRP"
stdout: -0.0573

stdin: Give reported shrunken log2 fold change value for "RRIRPRPPRLPRPRPRPGMHPRP"
stdout: 0.206

stdin: Give reported shrunken log2 fold change value for "RRIRTRPPRLPRPRPRPGYYPRP"
stdout: -0.442

====

- Test system: Escherichia coli TOP10
- TEST_DESCRIPTION: shrunken log2 fold change of peptide-encoding DNA abundance (4.5 h post-induction vs induction); higher = less antimicrobial activity (less host growth inhibition)
- CONDITION_INFO: time post-induction: 4.5 h; library: site-saturation at positions 5, 18, 19, 20
# shrunken log2 fold change per record follows

Reference set, count: 6
stdin: Give reported shrunken log2 fold change value for "RRIRQRPPRLPRPRPRPMWPPRP"
stdout: 0.269

stdin: Give reported shrunken log2 fold change value for "RRIRHRPPRLPRPRPRPNRQPRP"
stdout: -0.0122

stdin: Give reported shrunken log2 fold change value for "RRIRVRPPRLPRPRPRPGQLPRP"
stdout: 0.208

stdin: Give reported shrunken log2 fold change value for "RRIRARPPRLPRPRPRPDRYPRP"
stdout: -0.474

stdin: Give reported shrunken log2 fold change value for "RRIRIRPPRLPRPRPRPDQKPRP"
stdout: -0.0112

stdin: Give reported shrunken log2 fold change value for "RRIRARPPRLPRPRPRPEEVPRP"
stdout: 0.0554

---
stdin: Give reported shrunken log2 fold change value for "RRIRLRPPRLPRPRPRPEFLPRP"
stdout: -0.108

stdin: Give reported shrunken log2 fold change value for "RRIRWRPPRLPRPRPRPRVGPRP"
stdout: 0.563

stdin: Give reported shrunken log2 fold change value for "RRIRMRPPRLPRPRPRPRMCPRP"
stdout: 0.0537

stdin: Give reported shrunken log2 fold change value for "RRIRWRPPRLPRPRPRPNEVPRP"
stdout: 0.0902

stdin: Give reported shrunken log2 fold change value for "RRIRVRPPRLPRPRPRPWTYPRP"
stdout: -1.3

stdin: Give reported shrunken log2 fold change value for "RRIRTRPPRLPRPRPRPIWFPRP"
stdout: -0.033

stdin: Give reported shrunken log2 fold change value for "RRIRFRPPRLPRPRPRPWTVPRP"
stdout: -0.0388

stdin: Give reported shrunken log2 fold change value for "RRIRKRPPRLPRPRPRPGSPPRP"
stdout: 0.166

stdin: Give reported shrunken log2 fold change value for "RRIRWRPPRLPRPRPRPSMQPRP"
stdout: -0.0561

====

- Test system: Escherichia coli TOP10
- TEST_DESCRIPTION: shrunken log2 fold change of peptide-encoding DNA abundance (4.5 h post-induction vs induction); higher = less antimicrobial activity (less host growth inhibition)
- CONDITION_INFO: time post-induction: 4.5 h; library: site-saturation at positions 5, 18, 19, 20
VALUE_TYPE: shrunken log2 fold change
The reply should be a number, written without any unit.

stdin: Give reported shrunken log2 fold change value for "RRIRRRPPRLPRPRPRPHCTPRP"
stdout: -0.18

stdin: Give reported shrunken log2 fold change value for "RRIRQRPPRLPRPRPRPHAYPRP"
stdout: -0.352

---
stdin: Give reported shrunken log2 fold change value for "RRIRARPPRLPRPRPRPYISPRP"
stdout: -0.132

stdin: Give reported shrunken log2 fold change value for "RRIRMRPPRLPRPRPRPNYCPRP"
stdout: -0.0723

====

- Test system: Escherichia coli TOP10;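 note: peptides expressed intracellularly from a pBAD plasmid library in pooled LB shake-flask culture, induced with 0.3% L-arabinose, DNA abundance read by NGS, three biological replicates, DESeq2 with apeglm shrinkage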
- TEST_DESCRIPTION: shrunken log2 fold change of peptide-encoding DNA abundance (4.5 h post-induction vs induction); higher = less antimicrobial activity (less host growth inhibition)
- CONDITION_INFO: time post-induction: 4.5 h; library: site-saturation at positions 5, 18, 19, 20
The threshold is inclusive: shrunken log2 fold change of exactly -0.08 counts as Yes; values below receive No.

stdin: Reported shrunken log2 fold change at or above -0.08? "RRIRLRPPRLPRPRPRPNMMPRP"
stdout: No

stdin: Reported shrunken log2 fold change at or above -0.08? "RRIRLRPPRLPRPRPRPICAPRP"
stdout: Yes

stdin: Reported shrunken log2 fold change at or above -0.08? "RRIRSRPPRLPRPRPRPTGLPRP"
stdout: Yes

stdin: Reported shrunken log2 fold change at or above -0.08? "RRIRKRPPRLPRPRPRPMDCPRP"
stdout: Yes

stdin: Reported shrunken log2 fold change at or above -0.08? "RRIRHRPPRLPRPRPRPTVIPRP"
stdout: Yes

stdin: Reported shrunken log2 fold change at or above -0.08? "RRIRSRPPRLPRPRPRPGRTPRP"
stdout: Yes

stdin: Reported shrunken log2 fold change at or above -0.08? "RRIRHRPPRLPRPRPRPNKQPRP"
stdout: No

stdin: Reported shrunken log2 fold change at or above -0.08? "RRIRNRPPRLPRPRPRPDTLPRP"
stdout: Yes

stdin: Reported shrunken log2 fold change at or above -0.08? "RRIRLRPPRLPRPRPRPWASPRP"
stdout: Yes

stdin: Reported shrunken log2 fold change at or above -0.08? "RRIRQRPPRLPRPRPRPATIPRP"
stdout: No

---
stdin: Reported shrunken log2 fold change at or above -0.08? "RRIRHRPPRLPRPRPRPFEVPRP"
stdout: No

stdin: Reported shrunken log2 fold change at or above -0.08? "RRIRQRPPRLPRPRPRPFHMPRP"
stdout: Yes

stdin: Reported shrunken log2 fold change at or above -0.08? "RRIRTRPPRLPRPRPRPWCWPRP"
stdout: Yes

stdin: Reported shrunken log2 fold change at or above -0.08? "RRIRDRPPRLPRPRPRPQKKPRP"
stdout: No

stdin: Reported shrunken log2 fold change at or above -0.08? "RRIRQRPPRLPRPRPRPAYHPRP"
stdout: No

stdin: Reported shrunken log2 fold change at or above -0.08? "RRIRSRPPRLPRPRPRPKYSPRP"
stdout: No

stdin: Reported shrunken log2 fold change at or above -0.08? "RRIRKRPPRLPRPRPRPINHPRP"
stdout: No

stdin: Reported shrunken log2 fold change at or above -0.08? "RRIRVRPPRLPRPRPRPKEEPRP"
stdout: Yes

stdin: Reported shrunken log2 fold change at or above -0.08? "RRIRRRPPRLPRPRPRPPLKPRP"
stdout: Yes

stdin: Reported shrunken log2 fold change at or above -0.08? "RRIRWRPPRLPRPRPRPACWPRP"
stdout: Yes

stdin: Reported shrunken log2 fold change at or above -0.08? "RRIRHRPPRLPRPRPRPKVHPRP"
stdout: Yes

stdin: Reported shrunken log2 fold change at or above -0.08? "RRIRMRPPRLPRPRPRPGDGPRP"
stdout: Yes

stdin: Reported shrunken log2 fold change at or above -0.08? "RRIRGRPPRLPRPRPRPVVQPRP"
stdout: Yes

stdin: Reported shrunken log2 fold change at or above -0.08? "RRIRHRPPRLPRPRPRPMMCPRP"
stdout: No
